Literature-derived pIC50 for Tyrosine-protein kinase JAK2 (Homo sapiens, UniProt O60674) follows.
pIC50: −log10 of the molar value.
quantity.measured: pIC50

# molecule, pIC50
data = [
    ("O=c1[nH]c2cnc(-n3cnc4ccccc43)nc2n1C1CCOc2cc(F)ccc21 (racemic)", 7.02),
    ("Cc1cnc(NCCN2CCOCC2)nc1-c1cnn(CCC#N)c1", 4.71),
]

I = O=c1cc(-c2ccccc2)nc2c(-c3cccc([N+](=O)[O-])c3)c(C(F)(F)F)[nH]n12
II = CC1(C)[C@H](Nc2c(C(N)=O)cnn3cc(-c4ccc(F)cc4)cc23)CC[C@]1(C)N
III = CC(C)S(=O)(=O)N1C[C@H](N(C)c2ncnc3[nH]ccc23)C2(CC2)C1
List from greatest to least pIC50. Rank them, then answer with their labels in that order.
II, III, I
